- PROTOCOL DESCRIPTION: TOR pathway LAP4-GFP level changes – S. cerevisiae, multiplex flow cytometry, MLPCN library, primary screen (AID 2023)
- PARTICULARS: 3 h, at 10 µM, median GFP as percent of DMSO wells
Among all 320,000 compounds or so, about 1,100 (0.34%) were called active.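 The calls were made as follows: active = GFP response vs DMSO above a set limit, about the screen mean plus 3 SD (cut at about 150% in these data); inconclusive = under 70 cell events counted for the yeast strain; inactive = the rest.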 What follows is part of a selection rich in actives, with near analogues and random picks from the rest.
Classes used: active, inactive

>  <COMPOUND>
Cc1ccc(-c2nn(-c3ccccc3)cc2C(=O)NC2CCC(O)CC2)cc1 (stereo unspecified)

>  <GROUP LABEL>
inactive

$$$$
>  <COMPOUND>
O=c1[nH]c2ccccc2n2c(-c3ccccc3)nnc12

>  <GROUP LABEL>
inactive

$$$$
>  <COMPOUND>
O=C(NNC(=S)NC(=O)c1cn(-c2ccccc2)nc1-c1ccccc1)c1ccncc1

>  <GROUP LABEL>
active

$$$$
>  <COMPOUND>
Cc1cc2ccccc2n1CCNC(=O)COc1ccc2ccccc2c1

>  <GROUP LABEL>
inactive

$$$$
>  <COMPOUND>
Cc1cc2ccccc2n1CCC(=O)O

>  <GROUP LABEL>
active

$$$$
>  <COMPOUND>
CN(C)CCc1c[nH]c2ccc(Cn3cncn3)cc12

>  <GROUP LABEL>
inactive

$$$$
